tested on: Propionibacterium acnes 44; experiment: Susceptibility of anaerobic bacteria, agar dilution; assay type: cell-based; details: Cutibacterium acnes, 24 h; Propionibacterium acnes 44; read-out: 24 Hr. Minimum Inhibitory Concentration
property: MIC

Example entries and their recorded answers appear below.
CC(=O)Nc1c(C#N)c(-c2ncc([N+](=O)[O-])n2C)nn1C [Compound 8] | > 8 µg/mL
CCCn1nc(-c2ncc([N+](=O)[O-])n2C)c(C#N)c1N [Compound 22] | > 32 µg/mL
CC=CC=Nc1c(C#N)c(-c2ncc([N+](=O)[O-])n2C)nn1C [Compound 18] | > 32 µg/mL
Cn1nc(-c2ncc([N+](=O)[O-])n2C)c(C(N)=O)c1N [Compound 2] | 0.5 µg/mL

Recorded MIC for COC=Nc1c(C#N)c(-c2ncc([N+](=O)[O-])n2C)nn1C [Compound 6] with Propionibacterium acnes 44, please?
> 32 µg/mL

Okay, and C=CCOC=Nc1c(C#N)c(-c2ncc([N+](=O)[O-])n2C)nn1C [Compound 13A] ?
> 128 µg/mL

Okay, and CCn1nc(-c2ncc([N+](=O)[O-])n2C)c(C#N)c1N [Compound 16] ?
> 32 µg/mL

Okay, and CC(=O)Nc1c(C(=O)O)c(-c2ncc([N+](=O)[O-])n2C)nn1C [Compound 12] ?
> 32 µg/mL

Okay, and CCCCOC=Nc1c(C#N)c(-c2ncc([N+](=O)[O-])n2C)nn1C [Compound 7] ?
> 32 µg/mL

Okay, and CCOC=Nc1c(C#N)c(-c2ncc([N+](=O)[O-])n2C)nn1C [Compound 4] ?
> 32 µg/mL

Okay, and Cn1c([N+](=O)[O-])cnc1-c1nn(CCCl)c(N)c1C#N [Compound 15] ?
> 32 µg/mL

Okay, and CCNc1cc(-c2ncc([N+](=O)[O-])n2C)nn1C [Compound 11A] ?
8 µg/mL

Okay, and CCCCC(CC)COC=Nc1c(C#N)c(-c2ncc([N+](=O)[O-])n2C)nn1C (centres unmarked) [Compound 13D] ?
16 µg/mL

Okay, and Cn1c([N+](=O)[O-])cnc1-c1nn(CCO)c(N)c1C#N [Compound 14] ?
> 32 µg/mL

Okay, and CNNC=Nc1c(C#N)c(-c2ncc([N+](=O)[O-])n2C)nn1C [Compound 21] ?
32 µg/mL

Okay, and CN(C)C=Nc1c(C#N)c(-c2ncc([N+](=O)[O-])n2C)nn1C [Compound 9] ?
> 32 µg/mL

Okay, and Cn1nc(-c2ncc([N+](=O)[O-])n2C)c(C(=O)O)c1N [Compound 10A] ?
> 32 µg/mL

###

system: Pasteurella multocida; test: Efficacy against Pasteurella multocida infections in mice when administered by injection (Experiment 1); type: in vivo, Swiss mice; details: ip, 5.0 mg./kg. i.p., challenge dilution 10^-^6, read-out: Survival Ratio (converted)
Given measured responders at 5 mg/kg, output class 1 if it is greater than or equal to 90% and class 0 if not.

Consider the following illustrative entries.
CC(=O)Nc1c(C(=O)O)c(-c2ncc([N+](=O)[O-])n2C)nn1C [Compound 12] | class 0
COC=Nc1c(C#N)c(-c2ncc([N+](=O)[O-])n2C)nn1C [Compound 6] | class 1
CCCCOC=Nc1c(C#N)c(-c2ncc([N+](=O)[O-])n2C)nn1C [Compound 7] | class 0
CCCCC(CC)COC=Nc1c(C#N)c(-c2ncc([N+](=O)[O-])n2C)nn1C (centres unmarked) [Compound 13D] | class 1

State whether the measured responders at 5 mg/kg reaches 90%, counting equality as reaching it, for C=CCOC=Nc1c(C#N)c(-c2ncc([N+](=O)[O-])n2C)nn1C [Compound 13A]
class 1

Okay, and Cn1nc(-c2ncc([N+](=O)[O-])n2C)c(C#N)c1N=COCCCl [Compound 13B] ?
class 0

###

# MIC per entry
tested on: Peptococcus anaerobius 1428; assay: Susceptibility of anaerobic bacteria, agar dilution; format: cell-based; details: 24 h, read-out: 24 Hr. Minimum Inhibitory Concentration

CCCCOC=Nc1c(C#N)c(-c2ncc([N+](=O)[O-])n2C)nn1C [Compound 7] | < 0.125 µg/mL
Cn1nc(-c2ncc([N+](=O)[O-])n2C)cc1N [Compound 3] | < 0.125 µg/mL
COC=Nc1c(C#N)c(-c2ncc([N+](=O)[O-])n2C)nn1C [Compound 6] | < 0.125 µg/mL
CC[C@H]1OC(=O)[C@H](C)[C@@H](O[C@H]2C[C@@](C)(OC)[C@@H](O)[C@H](C)O2)[C@H](C)[C@@H](O[C@@H]2O[C@H](C)C[C@H](N(C)C)[C@H]2O)[C@](C)(O)C[C@@H](C)C(=O)[C@H](C)[C@@H](O)[C@]1(C)O [Erythromycin, erythromycin, reference compound] | 1 µg/mL
CC=CC=Nc1c(C#N)c(-c2ncc([N+](=O)[O-])n2C)nn1C [Compound 18] | < 0.125 µg/mL

Look at this molecule and give its reported MIC. Cn1c([N+](=O)[O-])cnc1-c1nn(CCO)c(N)c1C#N [Compound 14]
< 0.125 µg/mL

Okay, and CCCn1nc(-c2ncc([N+](=O)[O-])n2C)c(C#N)c1N [Compound 22] ?
< 0.125 µg/mL

###

Tested on: Pasteurella multocida
Test: Efficacy against Pasteurella multocida infections in mice when administered by injection (Experiment 1)
Assay type: in vivo, Swiss mice
Conditions: ip, 2.5 mg./kg. i.p., challenge dilution 10^-^5, read-out: Survival Ratio (converted)
Procedure: The efficacy of the novel compounds against Pasteurella multocida infections in mice when administered by injection was studied. Female Swiss mice weighing from 15 to about 20 g. were used. The test compound, 5.0 mg., was weighed out and dissolved in 0.5 ml. of dimethyl sulfoxide, and this solution was added to 9.5 ml. of sodium carboxymethylcellulose suspension. Groups of five mice each were injected intraperitoneally with 0.1 ml. each of the above-prepared test composition. […]
property: responders at 2.5 mg/kg (%)
Your answer is read as %, so omit the unit and give the number.

Example entries and their recorded answers appear below.
CC(C)COC=Nc1c(C#N)c(-c2ncc([N+](=O)[O-])n2C)nn1C [Compound 13C] | 30
Cn1nc(-c2ncc([N+](=O)[O-])n2C)c(C(N)=O)c1N | 90
CCCCOC=Nc1c(C#N)c(-c2ncc([N+](=O)[O-])n2C)nn1C | 35
Cn1nc(-c2ncc([N+](=O)[O-])n2C)c(C#N)c1N | 40
COC=Nc1c(C#N)c(-c2ncc([N+](=O)[O-])n2C)nn1C | 50
CC(=O)N(C(C)=O)c1c(C#N)c(-c2ncc([N+](=O)[O-])n2C)nn1C | 90

Look at this compound and give its reported responders at 2.5 mg/kg. CCCCC(CC)COC=Nc1c(C#N)c(-c2ncc([N+](=O)[O-])n2C)nn1C (stereo not shown) [Compound 13D]
70

###

# MIC per entry
test system: Fusobacterium necrophorum 13859; experiment: Susceptibility of anaerobic bacteria, agar dilution; assay type: cell-based; settings: 24 h; Fusobacterium necrophorum 13859; read-out: 24 Hr. Minimum Inhibitory Concentration

Example entries and their recorded answers appear below.
CCCCC(CC)COC=Nc1c(C#N)c(-c2ncc([N+](=O)[O-])n2C)nn1C (stereo not shown) [Compound 13D] | < 0.125 µg/mL
CN(C)S(=O)(=O)Nc1c(C#N)c(-c2ncc([N+](=O)[O-])n2C)nn1C | 1 µg/mL
CC(=O)Nc1c(C(=O)O)c(-c2ncc([N+](=O)[O-])n2C)nn1C | < 0.125 µg/mL

Recorded MIC for `CC(=O)Nc1c(C#N)c(-c2ncc([N+](=O)[O-])n2C)nn1C` with Fusobacterium necrophorum 13859, please?
0.06 µg/mL

Okay, and C=CCOC=Nc1c(C#N)c(-c2ncc([N+](=O)[O-])n2C)nn1C [Compound 13A] ?
< 0.125 µg/mL

Okay, and CCNc1cc(-c2ncc([N+](=O)[O-])n2C)nn1C [Compound 11A] ?
< 0.03 µg/mL

Okay, and Cn1nc(-c2ncc([N+](=O)[O-])n2C)c(C(=O)O)c1N [Compound 10A] ?
< 0.125 µg/mL

###

test system: Veillonella alcalescens 1; test: Susceptibility of anaerobic bacteria, agar dilution; type: cell-based; details: Veillonella parvula, 24 h; Veillonella alcalescens 1; read-out: 24 Hr. Minimum Inhibitory Concentration
# MIC per entry
Your answer is read as µg/mL, so omit the unit and give the number.

CCNc1cc(-c2ncc([N+](=O)[O-])n2C)nn1C [Compound 11A] | 1

Look at this compound and give its reported MIC. CC[C@H]1OC(=O)[C@H](C)[C@@H](O[C@H]2C[C@@](C)(OC)[C@@H](O)[C@H](C)O2)[C@H](C)[C@@H](O[C@@H]2O[C@H](C)C[C@H](N(C)C)[C@H]2O)[C@](C)(O)C[C@@H](C)C(=O)[C@H](C)[C@@H](O)[C@]1(C)O [Erythromycin, erythromycin, reference compound]
1

Okay, and CCCCC(CC)COC=Nc1c(C#N)c(-c2ncc([N+](=O)[O-])n2C)nn1C (stereo not drawn) [Compound 13D] ?
0.25

Okay, and CC(=O)Nc1c(C(=O)O)c(-c2ncc([N+](=O)[O-])n2C)nn1C [Compound 12] ?
0.5

Okay, and CC(=O)Nc1c(C#N)c(-c2ncc([N+](=O)[O-])n2C)nn1C [Compound 8] ?
0.03

Okay, and CN(C)S(=O)(=O)Nc1c(C#N)c(-c2ncc([N+](=O)[O-])n2C)nn1C [Compound 20] ?
1
